B1: ZBED1 (parent)
chain: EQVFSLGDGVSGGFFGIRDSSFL

# Variants of: B1
# procedure details: protein stability index of a GFP-peptide fusion (GPS, HEK-293T) (PSI 1-6); higher = more stable;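 further: lentivirally expressed fusions sorted by FACS into six bins by GFP to DsRed ratio, PSI derived from sequencing read proportions per bin multiplied by bin number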
# details: c terminus: native
endpoint: protein stability index

biopolymer_sequence="EQVFSLGDGVSGGFFGIRDSWFL [S21W]" reported_result=2.59
biopolymer_sequence="EQVFSLGDGVSGGFFGTRDSSFL [I17T]" reported_result=4.3
biopolymer_sequence="EQVFSLGDGVSLGFFGIRDSSFL [G12L]" reported_result=2.3
biopolymer_sequence="NQVFSLGDGVSGGFFGIRDSSFL [E1N]" reported_result=2.99
biopolymer_sequence="EQVFSLGDGVSMGFFGIRDSSFL [G12M]" reported_result=2.88
biopolymer_sequence="EQVFSLGDGVSGGFFGIRKSSFL [D19K]" reported_result=3.4
biopolymer_sequence="EQVFRLGDGVSGGFFGIRDSSFL [S5R]" reported_result=3.29
biopolymer_sequence="DQVFSLGDGVSGGFFGIRDSSFL [E1D]" reported_result=3.69
biopolymer_sequence="EQVFHLGDGVSGGFFGIRDSSFL [S5H]" reported_result=3.36
biopolymer_sequence="EQVFSLGDGVSGLFFGIRDSSFL [G13L]" reported_result=2.23
biopolymer_sequence="EQVISLGDGVSGGFFGIRDSSFL [F4I]" reported_result=3.63
biopolymer_sequence="EQVFSLGDGVSGGFFGIGDSSFL [R18G]" reported_result=3.42
biopolymer_sequence="EQVFSLGDGVSGGFFGICDSSFL [R18C]" reported_result=1.98
biopolymer_sequence="EQPFSLGDGVSGGFFGIRDSSFL [V3P]" reported_result=4.06
biopolymer_sequence="EQVFSLGDGVSGGFFGIRDSIFL [S21I]" reported_result=2.25
biopolymer_sequence="ECVFSLGDGVSGGFFGIRDSSFL [Q2C]" reported_result=1.96
biopolymer_sequence="EQVFSLGDGVSGGFFRIRDSSFL [G16R]" reported_result=3.14
biopolymer_sequence="EQVTSLGDGVSGGFFGIRDSSFL [F4T]" reported_result=3.75
biopolymer_sequence="EQVFSAGDGVSGGFFGIRDSSFL [L6A]" reported_result=3.92
biopolymer_sequence="EQVFSLGDGVSGGFFGIRDFSFL [S20F]" reported_result=2.39
biopolymer_sequence="EQVFSLGDGVSGGFPGIRDSSFL [F15P]" reported_result=4.25
biopolymer_sequence="EQVFSLGEGVSGGFFGIRDSSFL [D8E]" reported_result=3.04
biopolymer_sequence="PQVFSLGDGVSGGFFGIRDSSFL [E1P]" reported_result=2.64
biopolymer_sequence="EQVFSLGDGVSGYFFGIRDSSFL [G13Y]" reported_result=2.04
biopolymer_sequence="EHVFSLGDGVSGGFFGIRDSSFL [Q2H]" reported_result=3.22
biopolymer_sequence="EQVFKLGDGVSGGFFGIRDSSFL [S5K]" reported_result=3.31
biopolymer_sequence="EDVFSLGDGVSGGFFGIRDSSFL [Q2D]" reported_result=3.7
biopolymer_sequence="EQVFSLGDGVSGGFGGIRDSSFL [F15G]" reported_result=3.85
biopolymer_sequence="EQVFSLGDGVSGGTFGIRDSSFL [F14T]" reported_result=4.12
biopolymer_sequence="EQVFSLGDGVSGGFFGIRDSSQL [F22Q]" reported_result=4.24
biopolymer_sequence="EQVFSLGFGVSGGFFGIRDSSFL [D8F]" reported_result=1.61
biopolymer_sequence="EQVFSLGDGVSGGFFGIRCSSFL [D19C]" reported_result=2.26
biopolymer_sequence="EQVFSHGDGVSGGFFGIRDSSFL [L6H]" reported_result=3.97
biopolymer_sequence="EQVFSQGDGVSGGFFGIRDSSFL [L6Q]" reported_result=3.5
biopolymer_sequence="EQVFSLGDGVSCGFFGIRDSSFL [G12C]" reported_result=2.49
biopolymer_sequence="EQVFSLGDGVSGGFFGIRDSSWL [F22W]" reported_result=3.73
biopolymer_sequence="EQVSSLGDGVSGGFFGIRDSSFL [F4S]" reported_result=4.29
biopolymer_sequence="EQVFSLGDGVSGGFFGIWDSSFL [R18W]" reported_result=2.21
biopolymer_sequence="EQVFSLGDGVSGGFFGIRDSNFL [S21N]" reported_result=3.62
biopolymer_sequence="EQVFSLGDGVSGGFSGIRDSSFL [F15S]" reported_result=4.43
biopolymer_sequence="EQVFSLGDGVSGGFFGIRDSSCL [F22C]" reported_result=3.39
biopolymer_sequence="EQYFSLGDGVSGGFFGIRDSSFL [V3Y]" reported_result=3.01
biopolymer_sequence="EQVFSLGDGVSGCFFGIRDSSFL [G13C]" reported_result=3.08
biopolymer_sequence="EQVFSLGDGVSGGFFGIRDSSTL [F22T]" reported_result=4.07
biopolymer_sequence="EQVFSLGDNVSGGFFGIRDSSFL [G9N]" reported_result=3.46
biopolymer_sequence="EQVFSLGDGVHGGFFGIRDSSFL [S11H]" reported_result=3.15
biopolymer_sequence="EQVFSLGDGESGGFFGIRDSSFL [V10E]" reported_result=3.62
biopolymer_sequence="EQVFSLGDGVSGGFFAIRDSSFL [G16A]" reported_result=2.62
biopolymer_sequence="EQVFSLGDGVSGGFFGIRDSMFL [S21M]" reported_result=2.54
biopolymer_sequence="EQVFSNGDGVSGGFFGIRDSSFL [L6N]" reported_result=3.4
biopolymer_sequence="EQVFSLGIGVSGGFFGIRDSSFL [D8I]" reported_result=1.41
biopolymer_sequence="EQVFSLGDGVSGGFFGFRDSSFL [I17F]" reported_result=3.42
biopolymer_sequence="EQVFSLGDGGSGGFFGIRDSSFL [V10G]" reported_result=3.89
biopolymer_sequence="EQVFSLGDFVSGGFFGIRDSSFL [G9F]" reported_result=2.55
biopolymer_sequence="EQVFSLGDGVSGGFFTIRDSSFL [G16T]" reported_result=2.77
biopolymer_sequence="EQVFSLGDGVSGGFFGMRDSSFL [I17M]" reported_result=3.75
biopolymer_sequence="EQVFSLGDGVSGGFLGIRDSSFL [F15L]" reported_result=3.7
biopolymer_sequence="EQVLSLGDGVSGGFFGIRDSSFL [F4L]" reported_result=3.36
biopolymer_sequence="SQVFSLGDGVSGGFFGIRDSSFL [E1S]" reported_result=2.83
